Hey, just so you know, these numbers are from ChEMBL document CHEMBL1201862.

Tested on: KM12
Test: NCI tumour cell line growth inhibition, 48 h
Calls of active or inactive are those of the source. Rule as the data show it: active = GI50 up to about 1.1 µM and inactive = higher.
Classes used: Y for active, N for inactive

• O=C(/C=C/c1ccccc1)CSc1nc[nH]n1 = N
• COc1ccc(Nc2nc(N)c(C(=O)c3ccccc3)s2)cc1 = Y
• N=C(N)N/N=C/c1c(-c2ccc(N)cc2)nc2sccn12 = N
• c1cc2c3ccsc3c3sccc3c2s1 = N
• CCN(CC)CCC1CCCCN1CC(=O)N1c2ccccc2NC(=O)CC1C (centres undefined) = N
• c1cnc2c3[nH]cc4[nH]c5ccccc5c4c-3nc2c1 = N
• C(/COc1cccnc1)=N\NC1=NCCN1 = N
• O=C(NCCNCCNCCNC(=O)c1cc(-c2ccccc2)nc2ccccc12)c1cc(-c2ccccc2)nc2ccccc12 = N
• COc1cccc(-c2nc(-c3cnccn3)n(C3OC(CO)C(O)C3O)n2)c1 (centres undefined) = N
• Brc1ccc2[nH]cc([C@@H]3CN[C@@H](c4c[nH]c5ccc(Br)cc45)CN3)c2c1 = N
• O=[N+]([O-])c1ccc(-c2noc(-c3ccc(Cl)cc3)c2C2=NCCN2)cc1 = N
• Cc1cc2sc(C)[n+](CCCOS(=O)(=O)[O-])c2cc1C = N
• CN(C)/C=N\c1nc(=O)n(C2CCC(CO)O2)cc1F (centres undefined) = N
• CC(C(=O)ON1C(=O)CCC1=O)c1ccc(C(=O)c2ccccc2)s1 (centres undefined) = N
• [N-]=[N+]=NC1C2CC3C4CC5CC3[C@H](C2)C(C5)C41 (some centres undefined) = N
• CN(C)CC/C(=N\Nc1c(Cl)cccc1Cl)c1ccccc1 = N
• CCOC(=O)CCC(NC(=O)c1ccc(Oc2nc3c(N)cc(C(F)(F)F)cc3nc2-c2ccccc2)cc1)C(=O)OCC (centres undefined) = N
• O=C1OCOC2(CCCC2)C1c1ccccc1 (centres undefined) = N
• FC(F)(F)P1C2C=CC(CC2)C1(F)F (centres undefined) = N

----------
Tested on: OVCAR-4
Experiment: NCI tumour cell line growth inhibition, 48 h
The source made the active and inactive calls. Cut-off read from the data, not from the text of the source: active = GI50 up to about 1.1 µM and inactive = higher.
GI50 values, listed per item
Measurement Type: GI50

* Cc1cc2sc(C)[n+](CCCOS(=O)(=O)[O-])c2cc1C | > 100 µM (inactive)
* COC(=O)C1C(C(=O)OC)C2(OC(c3ccc(Cl)cc3)=CC2=O)C12OC(c1ccc(Cl)cc1)=CC2=O (stereo not given) | 19.9 µM (inactive)
* COC(=O)CCC(NC(=O)OC(C)(C)C)C(=O)NC(Cc1ccc(NC(=O)CCCC(C)=O)cc1)C(=O)NC(CCC(=O)OC)C(=O)OC (stereo not given) | > 100 µM (inactive)
* CSCCCNC(=O)c1csc(-c2csc(CCNC(=O)CNC(=O)CNC(=O)CNC(=O)OC(C)(C)C)n2)n1 | > 100 µM (inactive)
* Cc1ccc2sc3cc(=O)cc(C)c-3nc2c1 | 14.2 µM (inactive)

----------
Test system: UO-31
Test: NCI tumour cell line growth inhibition, 48 h
Activity calls are given as the source filed them. Rule as the data show it: active = GI50 up to about 1.1 µM and inactive = higher.
Classes used: 1 = active, -1 = inactive

• CCOC(=O)CCC(NC(=O)c1ccc(Oc2nc3c(N)cc(C(F)(F)F)cc3nc2-c2ccccc2)cc1)C(=O)OCC (stereo unspecified) = -1
• Cc1[nH]c2ccccc2c1/C=C/c1c(C)[nH]c2ccccc12 = -1
• COc1ccc(/C=C/c2ccnc3ccccc23)c(OC)c1 = -1
• O[C@H]1[C@H](O)[C@@H](O)[C@H](O)[C@@H](O)[C@H]1O [INOSITOL] = -1
• COc1ccc(-c2cc(C(=O)Nc3cc(C(F)(F)F)cc(C(F)(F)F)c3)c3ccccc3n2)cc1 = -1
• Nc1c(-c2cn(Cc3ccccc3)c3ccccc23)[n+]([O-])c2ccccc2[n+]1[O-] = -1
• COc1ccc(CN2CCC/C=C/CC(Cl)(Cl)C2=O)cc1 = -1
• O=S(=O)(O)c1cc(/N=N/c2c(O)ccc3ccccc23)c2c(S(=O)(=O)O)cccc2c1 = -1
• Fc1cccc(C2SCc3nc4ccccc4n32)c1 (stereo unspecified) = -1
• O=C1c2ccccc2C(=O)N1C/C=N/NS(=O)(=O)c1ccc(Br)cc1 = -1
• CN1C(=O)C(C#N)C2C[C@@]1(C)Oc1ccccc12 (stereo partly specified) = -1
• CCCCN/C(=N/C#N)NCc1ccccc1 = -1
• COC(=O)CC1C2CC3C(C2=O)C13 (stereo unspecified) = -1
• CCOC(=O)C(Cl)(NC(=O)NC(Cl)(C(=O)OCC)C(F)(F)F)C(F)(F)F (stereo unspecified) = -1
• O=C1CCC2CCOc3ccc(O)c1c32 (stereo unspecified) = -1
• N=C(N)N/N=C/c1c(-c2ccc(N)cc2)nc2sccn12 = -1
• O=S1(=O)OCCOS(=O)(=O)C1Cc1cccc2ccccc12 = -1
• COC(=O)CCC(=O)C(C#N)c1ccc(Cl)cc1Cl (stereo unspecified) = -1
• CCOC(=O)/C=C1/C(CCCOCc2ccccc2)C2CCCC23CC2(CCN13)OCCO2 (stereo unspecified) = -1
• CCN(CC)C(=S)N/N=C(/c1ccccc1)c1ccccn1 = 1
• COC1=CC2=NCCc3n[nH]c(c32)C1=O = -1
• Cc1ccc(S(=O)(=O)NC(=O)NNc2ccc(F)cc2)cc1 = -1
• CCN1C/C(=C\c2ccc(Cl)cc2)c2nc(N)c(C#N)c(-c3ccc(Cl)cc3)c2C1 = -1
• CC[n+]1c(/C=C/c2ccc(N(CCCl)CCCl)cc2)ccc2cc(NC(=O)/C=C/c3ccccc3)ccc21 = -1
• [O-][n+]1onc2c1-c1nonc1CC2 = -1
• CCc1cccc(C(C)C)c1NC(=O)/C(=N\NC(N)=O)C(C(=O)OC)c1cnc2ccccc2n1 (stereo unspecified) = -1
• O=C(CC(O)(C(F)(F)Cl)C(F)(F)Cl)CC(O)(C(F)(F)Cl)C(F)(F)Cl = 1
• [N-]=[N+]=NC1C2CC3C4CC5CC3[C@H](C2)C(C5)C41 (stereo partly specified) = -1
• CCOC1(OCC)N=C(N)C2(C#N)C3(C(=O)N(C(C)C)N=C3C)C12C#N (stereo unspecified) = -1
• Cc1ccc(-c2ccc3c(c2)Sc2ccccc2O3)n1C = 1
• COc1ccc(C2C3=CONC3CC3CCCCC32)cc1 (stereo unspecified) = -1

----------
Test system: OVCAR-8
Experiment: NCI tumour cell line growth inhibition, 48 h
Calls of active or inactive are those of the source. Cut-off read from the data, not from the text of the source: active = GI50 up to about 1.1 µM and inactive = higher.
Classes used: T = active, F = inactive

• Cn1nc2ccc(Nc3cc(=O)[nH]c4ccc5nn(C)nc5c34)cc2n1 = F
• CCOC(=O)[C@]12C(=C(c3ccccc3)O[C@H]3C=CCC[C@H]31)C(=O)C(=O)N2c1ccccc1 = F
• COC(=O)[C@@]12OC[C@]34C([C@@H](O)C1O)[C@@]1(C)CC(=O)C(O)=C(C)C1C[C@H]3OC(=O)[C@H](OC(=O)CC(C)C(F)(F)F)[C@H]42 (stereo partly specified) = T
• c1csc(-c2cc(-c3cccs3)c(-c3ccsc3)s2)c1 = F
• Nc1ccc2c(O)cc(O)nc2n1 = F
• COC1(OC)C=CC(=O)C=C1 = F

----------
Tested on: M14
Assay: NCI tumour cell line growth inhibition, 48 h
Active and inactive are the calls of the source. Cut-off read from the data, not from the text of the source: active = GI50 up to about 1.1 µM and inactive = higher.
Measurement Type: GI50

- O=S(=O)(O)c1cc(/N=N/c2c(O)ccc3ccccc23)c2c(S(=O)(=O)O)cccc2c1: > 100 µM (inactive)
- COC(=O)C1C(C(=O)OC)C2(OC(c3ccc(Cl)cc3)=CC2=O)C12OC(c1ccc(Cl)cc1)=CC2=O (stereo unspecified): 19.1 µM (inactive)
- C=C1C(=O)O[C@@H]2C(=O)[C@@H](C)[C@@H]3C=CC(=O)[C@@]3(C)[C@@H](OC(=O)/C(C)=C\C)[C@H]12 [MULTISTATIN]: 1.56 µM (inactive)
- Cc1ccc(NC(=O)c2cccc(OP(=O)(O)Nc3ccc(C)cc3)c2)cc1: 33.3 µM (inactive)
- O=[N+]([O-])C1Cc2ccccc2OC1c1ccccc1 (stereo unspecified): > 100 µM (inactive)
- CC(=O)/N=C1\N/C(=C/c2cc([N+](=O)[O-])ccc2O)CN1C: > 100 µM (inactive)
- CCN(CC)CCCNc1ccc2nc(C)n3c4ccc(O)cc4c(=O)c1c23: 8.61 µM (inactive)
- CCCCC(=O)OC[n+]1ccc2c(C)c3[nH]c4ccc(OC)cc4c3c(C)c2c1: 1.04 µM (active)
- Brc1ccc2[nH]cc([C@@H]3CN[C@@H](c4c[nH]c5ccc(Br)cc45)CN3)c2c1: 5.25 µM (inactive)
- Cc1cccc(C)c1NC(=S)NC=C(C(N)=O)C(N)=O: > 100 µM (inactive)
- O=c1oc2ccc3ccccc3c2cc1-c1nc2ccccc2s1: > 100 µM (inactive)
- Cn1c(N2CCCC2)c(C=O)c(=O)n(C)c1=O: > 100 µM (inactive)
- CC(=O)OCC1OC(SC2=NC(=O)/C(=C/c3ccccc3)S2)C(OC(C)=O)C(OC(C)=O)C1OC(C)=O (stereo unspecified): 31.9 µM (inactive)
- CN(C)CCNc1ccc2ncn3c4ccc(O)cc4c(=O)c1c23: 1.63 µM (inactive)
- CCOC(=O)C(=O)Nc1nc2c(s1)C(=O)c1ccccc1C2=O: 15.7 µM (inactive)
- CCOC1CCN(C(=O)c2ccccc2)O1 (stereo unspecified): > 10 µM (inactive)
